Target: T1, 4H2642-AA
T1 chain: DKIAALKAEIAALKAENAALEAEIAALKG
Assay: two-hybrid library CCmax;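 note: natural log of median RNA to DNA barcode read ratio; higher means stronger binding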
Conditions: mean of both orientations
measured attribute: interaction score

Solved entries:
| binder | test value |
| --- | --- |
| DKIAALKAEIAALEAEIAALKAKNAALEG [4H2575-AA] | -1.2 |
| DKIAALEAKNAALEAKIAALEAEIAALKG [4H2466-AA] | -0.362 |

P: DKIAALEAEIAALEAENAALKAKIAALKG [4H2078-AA]
Q: DKIAALEAENAALKAKIAALEAKIAALEG [4H2277-AA]
q: Compare interaction score: is it lower for P or for Q ? Pick one; state its label.
a: Q
